The measurements presented in this section are drawn from ChEMBL document CHEMBL3045760.

assay.name: Apparent permeability from apical to basolateral side of Homo sapiens (human) Caco2 cells at 100 uM by HPLC-UV analysis
Format: ADME, cell-based
conditions.used: Caco-2
# key: entry, value: Papp A→B at 100 µM
Respond numerically; units are ×10⁻⁶ cm/s and should not be typed.

[
  {
    "compound": "COc1cc(C2Oc3ccc4c(=O)c5ccccc5oc4c3OC2CO)ccc1O (centres undefined)",
    "Papp A→B at 100 µM, ×10⁻⁶ cm/s": 14.4
  },
  {
    "compound": "O=c1c2ccccc2oc2c(O)c(O)ccc12 [3,4-DIHYDROXYXANTHONE]",
    "Papp A→B at 100 µM, ×10⁻⁶ cm/s": 19.4
  },
  {
    "compound": "CC1(C)CCc2cc3c(=O)c4ccccc4oc3c(O)c2O1",
    "Papp A→B at 100 µM, ×10⁻⁶ cm/s": 14.2
  }
]

GET /value?item= O=c1c2ccccc2oc2ccc(O)c(O)c12 &field=Papp A→B at 100 µM returns 15.2
